- Test system: human venous whole blood (IFN-γ)
- procedure_text: Human whole blood IFN-γ assay
- Type: cell-based
- experimental_parameters: human whole blood, anti-CD3 plus anti-CD28 stimulation, 24 hours; read-out: IFN-γ Whole Blood EC50
pEC50: −log10 of the molar value.
This section presents compounds with their documented pEC50 values.

compound: CC(c1ccc(CN2CCC(F)(F)CC2)cc1)N1C[C@H](C)N(c2nc(=O)n(C)c3ccc(C#N)nc23)C[C@H]1C (stereo partly shown) [Example 391]
pEC50: 6.14

compound: CCOc1ccc2c(n1)c(N1C[C@@H](CC)N(C(C)c3ccc(C(F)(F)F)cc3)C[C@@H]1CC)nc(=O)n2C (stereo partly shown)
pEC50: 4.70

compound: CC[C@H]1CN(C(C)c2nc(C3CC3)no2)[C@H](CC)CN1c1nc(=O)n(C)c2ccc(C#N)nc12 (stereo partly shown) [Example 361]
pEC50: 6.59

compound: CCC(c1ccc(OC(C)C)cc1)N1C[C@H](C)N(c2nc(=O)n(C)c3ccc(C#N)nc23)C[C@H]1CC (stereo partly shown) [Example 333]
pEC50: 6.92

compound: CC[C@H]1CN(C(C)c2ccc(C(F)(F)F)cc2)[C@H](CC)CN1c1nc(=O)n(C)c2ccc(OCCN(C)C)nc12 (stereo partly shown)
pEC50: 4.70

compound: CCC(c1ccc(OC(C)C)cc1)N1C[C@H](C)N(c2nc(=O)n(C)c3ccc(C#N)nc23)C[C@H]1CC (stereo partly shown) [Example 334]
pEC50: 6.14

compound: CC(c1ccc(OC(C)(C)C#N)cc1)N1C[C@H](C)N(c2nc(=O)n(C)c3ccc(C#N)nc23)C[C@H]1C (stereo partly shown) [Example 377]
pEC50: 6.28

----------
Form field: IC50 (one value per entry).
- target_entity: human DGKα (Homo sapiens (Human), UniProt P23743)
- Sequence (P23743 whole entry, looked up): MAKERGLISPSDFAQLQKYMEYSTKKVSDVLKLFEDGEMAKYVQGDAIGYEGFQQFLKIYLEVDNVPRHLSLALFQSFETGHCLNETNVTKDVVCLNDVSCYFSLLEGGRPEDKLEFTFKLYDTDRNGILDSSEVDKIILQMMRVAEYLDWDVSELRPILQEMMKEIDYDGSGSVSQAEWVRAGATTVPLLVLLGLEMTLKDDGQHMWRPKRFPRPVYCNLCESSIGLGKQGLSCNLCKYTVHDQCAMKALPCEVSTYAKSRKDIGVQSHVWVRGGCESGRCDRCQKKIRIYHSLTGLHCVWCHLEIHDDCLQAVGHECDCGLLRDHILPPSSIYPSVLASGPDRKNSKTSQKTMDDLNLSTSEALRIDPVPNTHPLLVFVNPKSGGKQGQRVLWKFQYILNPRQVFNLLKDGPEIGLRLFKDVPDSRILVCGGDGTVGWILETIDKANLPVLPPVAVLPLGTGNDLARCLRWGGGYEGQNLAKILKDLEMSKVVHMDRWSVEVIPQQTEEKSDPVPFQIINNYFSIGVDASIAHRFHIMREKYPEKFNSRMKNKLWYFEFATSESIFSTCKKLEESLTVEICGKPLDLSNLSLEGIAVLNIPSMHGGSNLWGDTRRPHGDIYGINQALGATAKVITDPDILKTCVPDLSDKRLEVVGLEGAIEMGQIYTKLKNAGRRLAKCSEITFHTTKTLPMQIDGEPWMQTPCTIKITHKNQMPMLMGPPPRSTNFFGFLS
- procedure_text: DGKα ADPGLO assay (detergent/lipid micelle substrate)
- Type: biochemical
- experimental_parameters: truncated DGK alpha; read-out: DGK alpha ADPGLO (Truncated) IC50

compound: CC[C@@H]1CN(c2nc(=O)n(C)c3ccc(C#N)nc23)[C@@H](C)CN1C(c1ccc(F)cc1)c1cccc(C(F)(F)F)n1 (single isomer, unassigned)
target_entity: human DGKα (Homo sapiens (Human), UniProt P23743)
unit_text: nM
IC50: 2
--
compound: CCC(c1ccc(C)cc1)N1C[C@H](CC)N(c2nc(=O)n(C)c3ccc(C#N)nc23)C[C@H]1CC (stereo partly drawn) [Example 237]
target_entity: human DGKα (Homo sapiens (Human), UniProt P23743)
unit_text: nM
IC50: 53
--
compound: CC[C@H]1CN(C(c2ccc(F)cc2)c2cccc(C(F)F)n2)[C@H](CC)CN1c1nc(=O)n(C)c2ccc(C#N)nc12 (stereo partly drawn) [Example 258]
target_entity: human DGKα (Homo sapiens (Human), UniProt P23743)
unit_text: nM
IC50: 64
--
compound: CC[C@H]1CN(C(c2ccc(OC(F)(F)F)cc2)c2cc(C3CC3)on2)[C@H](CC)CN1c1nc(=O)n(C)c2ccc(C#N)nc12 (single isomer, unassigned) [Example 42]
target_entity: human DGKα (Homo sapiens (Human), UniProt P23743)
unit_text: nM
IC50: 7
--
compound: CCC(c1ccc(OC(F)(F)F)cc1)N1C[C@H](C)N(c2nc(=O)n(C)c3ccc(C#N)nc23)C[C@H]1CC (single isomer, unassigned) [Example 83]
target_entity: human DGKα (Homo sapiens (Human), UniProt P23743)
unit_text: nM
IC50: 15
--
compound: CCC(c1ccc(OC2CC2)cc1)N1C[C@H](CC)N(c2nc(=O)n(C)c3ccc(C#N)nc23)C[C@H]1CC (stereo partly drawn) [Example 255]
target_entity: human DGKα (Homo sapiens (Human), UniProt P23743)
unit_text: nM
IC50: 58
--
compound: CCC(c1ccc(C(F)(F)F)cc1)N1C[C@H](C)N(c2nc(=O)n(C)c3ccc(C#N)nc23)C[C@H]1CC (single isomer, unassigned) [Example 90]
target_entity: human DGKα (Homo sapiens (Human), UniProt P23743)
unit_text: nM
IC50: 140
--
compound: CCC(c1ccc(OCC2CC2)cc1F)N1C[C@H](CC)N(c2nc(=O)n(C)c3ccc(C#N)nc23)C[C@H]1CC (stereo partly drawn) [Example 199]
target_entity: human DGKα (Homo sapiens (Human), UniProt P23743)
unit_text: nM
IC50: 630
--
compound: CCC(c1ccc(Cl)cc1F)N1C[C@H](CC)N(c2nc(=O)n(C)c3ccc(C#N)nc23)C[C@H]1CC (stereo partly drawn) [Example 238]
target_entity: human DGKα (Homo sapiens (Human), UniProt P23743)
unit_text: nM
IC50: 15
--
compound: CC[C@@H]1CN(c2nc(=O)n(C)c3ccc(C#N)nc23)[C@@H](C)CN1C(C)c1ccc2oc(=O)n(C)c2c1 (stereo partly drawn) [Example 298]
target_entity: human DGKα (Homo sapiens (Human), UniProt P23743)
unit_text: nM
IC50: 480
--
compound: CC[C@@H]1CN(c2nc(=O)n(C)c3ccc(C#N)nc23)[C@@H](C)CN1C(c1ccc(F)cc1)c1ccc(C(F)(F)F)nc1 (single isomer, unassigned) [Example 97]
target_entity: human DGKα (Homo sapiens (Human), UniProt P23743)
unit_text: nM
IC50: 210
--
compound: CC[C@@H]1CN(c2nc(=O)n(C)c3ccc(C#N)nc23)[C@@H](C)CN1C(c1ccc(OC(F)(F)F)cc1)c1cc(C2CC2)on1 (stereo partly drawn) [Example 99]
target_entity: human DGKα (Homo sapiens (Human), UniProt P23743)
unit_text: nM
IC50: 4
